Provenance of the data: patent US20190248902A1

target under test: T1, recombinant, soluble human ASGR-1 (human, UniProt P07306 62-291)
T1 construct: biotinylated in the binning assay; also called soluble huASGR-1; Soluble ASGR-1 (Amgen)
T1 sequence: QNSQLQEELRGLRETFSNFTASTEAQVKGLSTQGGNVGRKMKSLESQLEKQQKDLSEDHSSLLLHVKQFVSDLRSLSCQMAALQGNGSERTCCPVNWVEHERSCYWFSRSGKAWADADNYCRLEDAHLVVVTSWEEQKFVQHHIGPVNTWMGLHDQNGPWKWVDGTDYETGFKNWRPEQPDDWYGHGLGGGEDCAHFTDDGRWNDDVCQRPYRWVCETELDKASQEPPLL
method description: Octet BLI dissociation, pH 5.6 minus calcium
Method: The relative dissociation of ASGR-1 from antibodies was measured using a label-free assay on an OctetHTX instrument (Fortebio). Antibody samples were captured on anti-HuFc kinetic biosensors (ForteBio cat #18-5064) at 5 ug/mL in assay buffer (10 mM Tris, 0.1% Triton, 150 mM NaCl, 1 mg/mL BSA, 1 mM CaCl2, pH7.4) for three minutes. […] Soluble ASGR-1 (Amgen) at 6 ug/ml in assay buffer was added and association to the antibodies was monitored for two minutes. […]
Quick rule: % Change Compared to pH 7.4 + Calcium of at least 10% means criterion met, below that means criterion not met.

Worked set:
>  <binder>
213B3 (antibody, V domains shown, hybridoma mAb) VH: QVQLVESGGGVVQPGRSLRLSCAASGFTFSSYGMHWVRQAPGKGLEWVAVIWYDGSNKNYADSVKGRFTISRDNSKNTLYLQMNSLRAEDTAVYYCARDRTVGYDGFDIWGQGTMVTVSS VL: DIQMTQSPSSLSASVGDRVTITCRASQGIGKYLAWFQQKPGKAPKSLISAASSVLSGVPSKFSGSGSGTDFTLTISSLQPEDFATYYCQKYDTYPFTFGPGTKVDIK

>  <label value>
criterion not met

$$$$
>  <binder>
198D2 (antibody, V domains shown, hybridoma mAb) VH: QVQLVESGGGVVQPGRSLRLSCAASGFTFRSYGMHWVRQAPGKGLEWVAVIIYDGSYKYYADSVKGRFTISRDNSKNTLYLQMNSLRAEDTAVYYCARTYSGGMDVWGQGTTVTVSS VL: QSVLTQPPSVSAAPGQKVTISCSGSSSNIGSNYVSWYQQLPGTAPKVLIYDNNKRPSGIPDRFSGSKSGTSATLGITGLQTGDEADYYCGTWDSRLNVGVFGGGTKLTVL

>  <label value>
criterion not met

$$$$
>  <binder>
4B1 (antibody, V domains shown, hybridoma mAb) VH: QVQLQESGPGLVKPSETLSLTCSVSGDSISSYSWSWIRQPAGKGLEWIGRIYTSGSTNYIPSLKSRITMSVDTSKKQFSLKLSSVTAADTAVYYCARDLKSSGCLFFDYWGQGTLVTVSS VL: DIQMTQSPSSLSASVGDRVTITCRASHTIRTYLNWYQQKPGKAPKLLIYAASSLQSGVPSRINGSGSGTDFTLTITNLQPEDFATYYCQQSYNISFTFGPGTKVDIK

>  <label value>
criterion not met

$$$$

[Q] API: above_or_equal(metric=% Change Compared to pH 7.4 + Calcium, cutoff=10%) for item 7F4 (antibody, V domains shown, hybridoma mAb) VH: QLQLQESGPGLVKPSETLSLTCTVSGGSISRSSYYWGWIRQPPGKGLEWIGNIYYSGATYYNPSLKSRVTISVDTSTNQFSLKLSSVTAADTAVYYCARHSGSWSLDYWGQGTLVTVSS VL: DIQMTQSPSSLSASVGDRVTITCRTSQGIRNDLGWYQQKPGKAPKRLIYAASNLQSGVPSRFSGSGSGTEFTLTISSLQPEDFATYYCLQHSAYPLTFGGGTKVEIK
[A] criterion not met

[Q] 65D5 (antibody, V domains shown, hybridoma mAb) VH: QVQLVQSGAEVKKPGASVKVSCKASGYTFPSYGISWVRQAPGQGLEWMGWISAYSGNTNYAQKLQGRVTMTTDTSTSTAYMELRSLRSDDTAVYFCARGEAVAVFDPWGQGTLVTVSS VL: DIQMTQSPSSLSASVGDRVTITCRASQDINNYLAWFQQKPGKAPRSLIYAASSLHSGVPSQFSASGSGSDFTLTISSLQPEDFATYYCPLYKSYPLTFGPGTKVDIK ?
[A] criterion met

[Q] Then 72F5 (antibody, V domains shown, hybridoma mAb) VH: EVQLLESGGGLVQPGGSLRLSCAASGFTFSSYAMIWVRQAPGKGLEWVSTISGSGGYTYSADSVKGRFTISRDNSKNTLYLQMNSLRAEDTAVYYCARRIAVTGTEWYDPWGQGTLVTVSS VL: DIQMTQSPSSLSASVGDRVIIPCRASQNISSYLNWYQQKPGKAPKLLIYAASSLQSGVPSRFSGSGSGTDFTLTISSLQPEDFATYSCQQTYSTPTFGQGTRLDIN ?
[A] criterion met

[Q] Thanks! And 192C8 (antibody, V domains shown, hybridoma mAb) VH: QVQLVESGGGVVQPGRSLRLSCAASGFTFSSYGMHWVRQAPGKGLEWVAVIWYDGSNEHYADSVKGRFMISRDNSKNTLYLQMNSLRAEDTAVYYCARDRGVGYYGMDVWGQGTTVTVSS VL: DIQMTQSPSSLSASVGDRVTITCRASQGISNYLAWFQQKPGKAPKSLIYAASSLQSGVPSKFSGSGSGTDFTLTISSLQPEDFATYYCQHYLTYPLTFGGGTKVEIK ?
[A] criterion not met

[Q] Same thing, different binder: 52G11 (antibody, V domains shown, hybridoma mAb) VH: QVQLVQSGAEVKKPGASVKVSCKASGYTFTGYYLHWVRQAPGQGLEWMGWINPNRNGTNYAQKFQGRVTMTRDTSISTAFMELSRLRSDDTAVYYCARDGTSSFDYWGQGTLVTVSS VL: DIQMTQSPSSVSASVGDRVTITCRASQGISKWLAWYQQKPGKAPKLLLYAASSLQSGVPSRFSASGSGTDFTLTISSLQPEDFATYYCQQANSFPFTFGPGTKVDVK
[A] criterion met

[Q] And the next one, 172B12 (antibody, V domains shown, hybridoma mAb) VH: QVQLVQSGAEVKKPGASVTVSCKASGYTFRSYYMYWVRQAPGQGLEWVGTINPSGGSTDYAQKFQGRVTMTRDTSTSTLYMELNSLRSEDTAVYYCASGWELNYWGQGTLVTVSS VL: SSELTQDPAVSVALGQTVRITCQGDSLRNYYASWYQQKPGQAPILVIYTKNSRPSGIPDRFSGSTSGNTASLTITGAQAEDEADYYCNSRDSSGNHVVFGGGTKLTVL ?
[A] criterion not met

[Q] How about this binder: 198B9 (antibody, V domains shown, hybridoma mAb) VH: QVQLVESGGGVVQPGRSLRLSCAASGFTFSNYGMHWVRQAPGKGLEWVAIIWFDGSNKYYVDSVKGRFTISRDNSKNTLFLQMSSLRAEDTAVYYCAREWLQFRYYYGMDVWGQGTTVTVSS VL: DIQMTQSPSSLSASVGDRVTITCRASQGIRKDLGWYQQKPGKAPKRLIYAASSLQSGVPSRFSGSGSGTEFTLTISSLQPEDFATYVCLQHYRYPFTFGPGTKVDFK
[A] criterion met
